Just for reference, the RNAGym collection of RNA variant scans (doi:10.1101/gr.219683.116) is where these values come from.

B1: mRNA-splicing (parent)
chain: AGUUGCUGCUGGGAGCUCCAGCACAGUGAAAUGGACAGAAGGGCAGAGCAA

variants of: B1; test: exon inclusion enrichment index; higher = more inclusion; WT1 exon 5 minigene, HEK293
READOUT_KIND: exon inclusion enrichment index

{"columns": ["MUT", "REPORTED_MEASUREMENT"],
 "data": [
  ["C22U A23C", 1.24],
  ["G5A C6G U7G C9A G43C C44G", 0.0277],
  ["G5A C6G U7G C9A G15U C16U", 0.000743],
  ["G5C C6A U7C G8A U10A A39G A40U", 0.0129],
  ["G5C C6A U7C G8A U10A A40U G41U", 0.0362],
  ["G5C C6G U7C U10C A23C", 2.88],
  ["G5C C6U G8C C9U U10C A30U A31U", 1.52],
  ["G5U G8U C9U A23U", 0.0459],
  ["C6A U7C C9A U10C A47U G48C", 2.31],
  ["G5A C6G U7G C9A C24G A25G", 0.00108],
  ["G5A C6U U7A G8U C9A U10C", 0.4],
  ["C6A U7A C9G", 0.28],
  ["G5A C6G U7G C9A G42C G43A", 0.0348],
  ["U4G G5A G8U C9U", 0.369],
  ["G5A C6U U7A G8U C9A A25C G26U", 0.133],
  ["G2U G5C C6A U7C G8A U10A", 0.329],
  ["G5A C6U U7A G8U C9A A37U G38U", 0.0205],
  ["U3A U4C", 0.355],
  ["G5A C6G U7G C9A C22U A23G", 0.00203],
  ["G5U G8U C9U A20G G21C", 0.187],
  ["G5A C6G U7G C9A U27C G28A", 0.00952],
  ["G5C C6U G8C C9U U10C U32C G33A", 0.84],
  ["G5C C6G U7C U10C G33A G34C", 0.988],
  ["G5A U7C G8A U10C G46C A47G", 2.57],
  ["G5A C6G U7G C9A U10C G11U", 0.0108],
  ["G5U G8U C9U G34A A35U", 0.0163],
  ["C6A U7C C9A U10C G33U G34U", 1.05],
  ["G5A U7C G8A U10C A40C", 2.82],
  ["G5C C6U G8C C9U U10C C36A A37C", 2.33],
  ["G5C C6A U7C G8A U10A A47C", 0.232],
  ["G5C C6G U7C U10G G11A", 2.98],
  ["G5U G8U C9U A29G", 0.246],
  ["C6A U7C C9A U10C A20C", 3.02],
  ["G5A U7C G8A U10C G15U C16G", 1.74],
  ["G5A C6U U7A G8U C9A U10C G11C", 0.845],
  ["C6A U7C C9A U10C U27G G28U", 0.0137],
  ["C6A U7A C9A U10A G13A A14G", 1.21],
  ["G5U G8U C9U A37C G38C", 0.175],
  ["G5U G8U C9U G46A A47U", 0.164],
  ["G5C C6G U7C U10C G46A A47U", 3.68],
  ["G5A C6G U7G C9A C24A A25U", 0.00166],
  ["C6U U7C C9A U10A", 0.879],
  ["G5C C6U G8C C9U U10C A31U U32A", 0.179],
  ["G5U G8U C9U G21U C22A", 0.0438],
  ["G5U G8U C9U C44G", 0.278],
  ["G5A C6U U7A G8U C9A C44U A45U", 0.0242],
  ["G5A C6G U7G C9A G42C G43U", 0.00749],
  ["C6A U7C C9A U10C A23G C24G", 4.2],
  ["G5A U7C G8A U10C G26A U27A", 2.4],
  ["G5A C6G U7G C9U", 0.00241],
  ["G5A C6U U7A G8U C9A C18G C19U", 0.00519],
  ["G5U G8U C9U G43C", 0.199],
  ["G5C C6A U7C G8A U10A A29G A30G", 0.0879],
  ["U3C U4G G5C C6A U7C G8A U10A", 0.239]
]}
